Reference source for all entries: paper PMC5602553

# targetOfAssay: KpCld (Klebsiella pneumoniae)
# Sequence (A6TJ49 1-187): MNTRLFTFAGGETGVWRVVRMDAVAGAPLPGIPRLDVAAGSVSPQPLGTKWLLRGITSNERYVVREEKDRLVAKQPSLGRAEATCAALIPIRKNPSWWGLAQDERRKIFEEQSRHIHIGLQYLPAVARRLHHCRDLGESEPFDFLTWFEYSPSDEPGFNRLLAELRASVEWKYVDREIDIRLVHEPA
# experimentalConditions: 100 mM phosphate pH 6.0; ferric enzyme; single binding site
endpoint: Kd (mM)
Numbers only; they are read as mM.

Q) Recorded Kd of Br , please.
A) 12.2
